These measurements were taken from patent US11859021B2.

# run-description: Solubility test in demineralized water
# Type: physicochemical
# conditions-used: 0.3 mM, film, sonicated, overnight
reported-property: Appearance at RT

INSERT INTO measurements (molecule, data_value) VALUES
  ('CCCCCCCCCCCCCCCC(=O)OC[C@H](COP(=O)(O)OCCNC(=O)[C@H](C)NC(=O)CC[C@@H](NC(=O)[C@H](C)NC(=O)[C@@H](C)O[C@H]1[C@H](O)[C@@H](CO)OC(O)[C@@H]1NC(C)=O)C(N)=O)OC(=O)CCCCCCCCCCCCCCC (stereo partly shown) [Mifamurtide, reference compound]', 'Clear'),
  ('CCCCCCCCCCCCCCCCCC(=O)NCCCC[C@H](NC(=O)CC[C@@H](NC(=O)[C@H](C)NC(=O)[C@@H](C)O[C@H]1[C@H](O)[C@@H](CO)OC(OCc2ccccc2)[C@@H]1NC(C)=O)C(N)=O)C(N)=O (stereo partly shown)', 'Precipitate'),
  ('CC(=O)N[C@H]1[C@@H](OCc2ccccc2)O[C@H](CO)[C@@H](O)[C@@H]1O[C@H](C)C(=O)N[C@@H](C)C(=O)N[C@H](CCC(=O)NCc1cn(CC(=O)O[C@H]2CC[C@@]3(C)C(=CC[C@H]4[C@@H]5CC[C@H]([C@H](C)CCCC(C)C)[C@@]5(C)CC[C@@H]43)C2)nn1)C(N)=O [Example 8, MDP(Bn)-Chol[Click]]', 'Precipitate');

====

# system-name: human NOD2 (hNOD2) (Homo sapiens)
# Construct: host or cells: HEK-Blue hNOD2 cells
# Sequence (Q9HC29 whole entry): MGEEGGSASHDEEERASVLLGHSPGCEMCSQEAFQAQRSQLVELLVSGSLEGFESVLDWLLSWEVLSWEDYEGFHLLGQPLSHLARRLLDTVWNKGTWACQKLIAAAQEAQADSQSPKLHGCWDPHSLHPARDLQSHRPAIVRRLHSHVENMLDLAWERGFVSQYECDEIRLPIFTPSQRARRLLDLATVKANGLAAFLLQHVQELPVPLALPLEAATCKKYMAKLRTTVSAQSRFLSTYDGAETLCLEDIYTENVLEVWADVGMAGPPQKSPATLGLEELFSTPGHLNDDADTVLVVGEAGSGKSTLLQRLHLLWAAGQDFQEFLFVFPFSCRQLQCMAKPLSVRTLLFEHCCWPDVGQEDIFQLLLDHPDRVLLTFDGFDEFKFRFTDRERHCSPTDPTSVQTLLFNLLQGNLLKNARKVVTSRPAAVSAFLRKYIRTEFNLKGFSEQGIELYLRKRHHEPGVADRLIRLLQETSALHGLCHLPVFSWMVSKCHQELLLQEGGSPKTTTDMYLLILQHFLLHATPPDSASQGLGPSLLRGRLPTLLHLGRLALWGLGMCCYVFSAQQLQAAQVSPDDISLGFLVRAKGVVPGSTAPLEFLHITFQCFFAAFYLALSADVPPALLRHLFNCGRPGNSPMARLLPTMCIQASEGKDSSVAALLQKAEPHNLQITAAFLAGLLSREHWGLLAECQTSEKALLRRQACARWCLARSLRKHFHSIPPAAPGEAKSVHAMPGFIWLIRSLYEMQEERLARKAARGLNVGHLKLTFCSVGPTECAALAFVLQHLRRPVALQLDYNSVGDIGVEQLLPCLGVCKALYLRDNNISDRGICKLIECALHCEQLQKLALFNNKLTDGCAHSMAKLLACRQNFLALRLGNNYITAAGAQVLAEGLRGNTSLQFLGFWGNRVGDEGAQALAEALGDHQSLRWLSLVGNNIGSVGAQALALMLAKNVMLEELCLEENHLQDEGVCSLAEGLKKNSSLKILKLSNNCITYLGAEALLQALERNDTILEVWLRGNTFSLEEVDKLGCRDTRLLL
# run-description: In vitro NOD2 activation assay in HEK-Blue hNOD2 cells
# Format: cell-based
# conditions-used: overnight incubation, FIG. 3
reported-property: NOD2 activation (NF-κB/SEAP reporter, OD at 620 nm)

INSERT INTO results (compound, system_name, data_value) VALUES
  ('CC(=O)N[C@H]1C(O)O[C@H](CO)[C@@H](O)[C@@H]1O[C@H](C)C(=O)N[C@@H](C)C(=O)N[C@H](CCC(=O)NCc1cn(CC(=O)O[C@H]2CC[C@@]3(C)C(=CC[C@H]4[C@@H]5CC[C@H]([C@H](C)CCCC(C)C)[C@@]5(C)CC[C@@H]43)C2)nn1)C(N)=O (some centres unmarked) [Example 3, MDP-Chol [Click]]', 'human NOD2 (hNOD2) (Homo sapiens)', 'comparable'),
  ('CCCCCCCCCCCCCCCCCC(=O)OC[C@H](COP(=O)(O)OCCNC(=O)Cn1cc(CNC(=O)CC[C@@H](NC(=O)[C@H](C)NC(=O)[C@@H](C)O[C@H]2[C@H](O)[C@@H](CO)OC(OCc3ccccc3)[C@@H]2NC(C)=O)C(N)=O)nn1)OC(=O)CCCCCCCCCCCCCCCCC (some centres unmarked) [Example 7, MDP(Bn)-DSPE [Click]]', 'human NOD2 (hNOD2) (Homo sapiens)', 'comparable'),
  ('CCCCCCCCCCCCCCCCCC(=O)OC[C@H](COP(=O)(O)OCCNC(=O)Cn1cc(CNC(=O)CC[C@@H](NC(=O)[C@H](C)NC(=O)[C@@H](C)O[C@H]2[C@H](O)[C@@H](CO)OC(O)[C@@H]2NC(C)=O)C(N)=O)nn1)OC(=O)CCCCCCCCCCCCCCCCC (some centres unmarked) [Example 2, MDP-DSPE [Click]]', 'human NOD2 (hNOD2) (Homo sapiens)', 'comparable');
